A collection of molecules and their measured Plasma protein binding rate (%) monkey
# System: plasma protein
# assay protocol: Plasma protein binding rate test by equilibrium dialysis method, monkey plasma
# Format: in vitro ADME
# applied conditions: 5 μM, equilibrium dialysis 4 hours at 37° C.
# Method: Plasma protein binding rates of the compounds were determined by equilibrium dialysis method (W. Lindner et al, J. Chromatography, 1996, 677, 1-28). Each test compound was dissolved in distilled water at concentration of 200 μM. […] After 4 hours, samples of plasma and the buffer were collected, and the fluorescence intensity of each was measured by EnVision (GE Corporation). […]
endpoint name: Plasma protein binding rate (%) monkey

molecule | numeric result
CC(/C=C/C=C1\N(CCS(=O)(=O)[O-])c2ccc(P(=O)([O-])[O-])cc2C1(C)C)=C\C=C\C1=[N+](CCS(=O)(=O)[O-])c2ccc(P(=O)([O-])[O-])cc2C1(C)C.[Na+].[Na+].[Na+].[Na+].[Na+] [Compound 18] | 95
CC1(C)C(/C=C/C=C/C=C/C=C2/N(CCCCC(=O)O)c3ccc(S(=O)(=O)O)cc3C2(C)C)=[N+](CCCCC(=O)O)c2ccc(S(=O)(=O)O)cc21.[Na+].[Na+] [Compound 6] | 79
CC1(C)C(=CC=CC=CC=CC2=[N+](CCP(=O)([O-])[O-])c3ccc(S(=O)(=O)[O-])cc3C2(C)C)N(CCP(=O)([O-])[O-])c2ccc(S(=O)(=O)[O-])cc21.[Na+].[Na+].[Na+].[Na+].[Na+] [Compound 9] | 67
CC1(C)C(/C=C/C=C/C=C/C=C2/N(CCC(=O)[O-])c3ccc(P(=O)([O-])[O-])cc3C2(C)C)=[N+](CCC(=O)[O-])c2ccc(P(=O)([O-])[O-])cc21.[Na+].[Na+].[Na+].[Na+].[Na+] [Compound 13] | 90
CC1(C)C(/C=C/C=C(/C=C/C=C2\N(CCCP(=O)([O-])[O-])c3ccc(S(=O)(=O)[O-])cc3C2(C)C)c2ccccc2)=[N+](CCCP(=O)([O-])[O-])c2ccc(S(=O)(=O)[O-])cc21.[Na+].[Na+].[Na+].[Na+].[Na+] [Compound 12] | 93
CC1(C)C(/C=C/C=C/C=C/C=C2\N(CCS(=O)(=O)[O-])c3ccc(S(=O)(=O)[O-])cc3C2(C)C)=[N+](CCS(=O)(=O)[O-])c2ccc(S(=O)(=O)[O-])cc21.[Na+].[Na+].[Na+] [Compound A, reference compound] | 87
CC1(C)C(/C=C/C=C/C=C/C=C2\N(CC(=O)O)c3ccc(S(=O)(=O)[O-])cc3C2(C)C)=[N+](CC(=O)O)c2ccc(S(=O)(=O)[O-])cc21.[Na+] [Compound 4] | 71
CC1(C)C(/C=C/C=C/C=C/C=C2/N(CCS(=O)(=O)[O-])c3ccc(P(=O)([O-])[O-])cc3C2(C)C)=[N+](CCS(=O)(=O)[O-])c2ccc(P(=O)([O-])[O-])cc21.[Na+].[Na+].[Na+].[Na+].[Na+] [Compound 14] | 95
CC1(C)C(/C=C/C=C(/C=C/C=C2\N(CCP(=O)([O-])[O-])c3ccc(S(=O)(=O)[O-])cc3C2(C)C)c2ccccc2)=[N+](CCP(=O)([O-])[O-])c2ccc(S(=O)(=O)[O-])cc21.[Na+].[Na+].[Na+].[Na+].[Na+] [Compound 11] | 97

###

# System: plasma protein
# assay protocol: Plasma protein binding rate test by equilibrium dialysis method, rabbit plasma
# Type: in vitro ADME
# applied conditions: 5 μM, equilibrium dialysis 4 hours at 37° C.
Readings of Plasma protein binding rate (%) rabbit for the listed compounds

compound | Plasma protein binding rate (%) rabbit
CC1(C)C(/C=C/C=C/C=C/C=C2/N(CCCCC(=O)O)c3ccc(S(=O)(=O)O)cc3C2(C)C)=[N+](CCCCC(=O)O)c2ccc(S(=O)(=O)O)cc21.[Na+].[Na+] | 88%
CC1(C)C(/C=C/C=C(/C=C/C=C2\N(CCS(=O)(=O)[O-])c3ccc(P(=O)([O-])[O-])cc3C2(C)C)c2ccccc2)=[N+](CCS(=O)(=O)[O-])c2ccc(P(=O)([O-])[O-])cc21.[Na+].[Na+].[Na+].[Na+].[Na+] | 94%
CC(/C=C/C=C1\N(CCS(=O)(=O)[O-])c2ccc(S(=O)(=O)[O-])cc2C1(C)C)=C\C=C\C1=[N+](CCS(=O)(=O)[O-])c2ccc(S(=O)(=O)[O-])cc2C1(C)C.[Na+].[Na+].[Na+] [Compound B, reference compound] | 88%
CC1(C)C(/C=C/C=C/C=C/C=C2\N(CCS(=O)(=O)[O-])c3ccc(S(=O)(=O)[O-])cc3C2(C)C)=[N+](CCS(=O)(=O)[O-])c2ccc(S(=O)(=O)[O-])cc21.[Na+].[Na+].[Na+] [Compound A, reference compound] | 79%

###

# Tested on: plasma protein
# assay protocol: Plasma protein binding rate test by equilibrium dialysis method, human plasma
# Format: in vitro ADME
# applied conditions: 5 μM, equilibrium dialysis 4 hours at 37° C.
// reported Plasma protein binding rate (%) human per item

compound | Plasma protein binding rate (%) human
CC1(C)C(/C=C/C=C(/C=C/C=C2\N(CCS(=O)(=O)[O-])c3ccc(P(=O)([O-])[O-])cc3C2(C)C)c2ccccc2)=[N+](CCS(=O)(=O)[O-])c2ccc(P(=O)([O-])[O-])cc21.[Na+].[Na+].[Na+].[Na+].[Na+] [Compound 15] | 93%
CC(/C=C/C=C1\N(CCS(=O)(=O)[O-])c2ccc(S(=O)(=O)[O-])cc2C1(C)C)=C\C=C\C1=[N+](CCS(=O)(=O)[O-])c2ccc(S(=O)(=O)[O-])cc2C1(C)C.[Na+].[Na+].[Na+] [Compound B, reference compound] | 92%
CC1(C)C(/C=C/C=C/C=C/C=C2/N(CCCCC(=O)O)c3ccc(S(=O)(=O)O)cc3C2(C)C)=[N+](CCCCC(=O)O)c2ccc(S(=O)(=O)O)cc21.[Na+].[Na+] [Compound 6] | 88%
CC1(C)C(/C=C/C=C/C=C/C=C2\N(CC(=O)O)c3ccc(S(=O)(=O)[O-])cc3C2(C)C)=[N+](CC(=O)O)c2ccc(S(=O)(=O)[O-])cc21.[Na+] [Compound 4] | 74%

###

# Tested on: plasma protein
# assay protocol: Plasma protein binding rate test by equilibrium dialysis method, mouse plasma
# Assay type: in vitro ADME
# applied conditions: 5 μM, equilibrium dialysis 4 hours at 37° C.
endpoint name: Plasma protein binding rate (%) mouse

compound | result unit | numeric result
CC(/C=C/C=C1\N(CCC(=O)[O-])c2ccc(P(=O)([O-])[O-])cc2C1(C)C)=C\C=C\C1=[N+](CCC(=O)[O-])c2ccc(P(=O)([O-])[O-])cc2C1(C)C.[Na+].[Na+].[Na+].[Na+].[Na+] | % | 63
CC(/C=C/C=C1\N(CCS(=O)(=O)[O-])c2ccc(P(=O)([O-])[O-])cc2C1(C)C)=C\C=C\C1=[N+](CCS(=O)(=O)[O-])c2ccc(P(=O)([O-])[O-])cc2C1(C)C.[Na+].[Na+].[Na+].[Na+].[Na+] | % | 59
CC1(C)C(=CC=CC=CC=CC2=[N+](CCP(=O)([O-])[O-])c3ccc(S(=O)(=O)[O-])cc3C2(C)C)N(CCP(=O)([O-])[O-])c2ccc(S(=O)(=O)[O-])cc21.[Na+].[Na+].[Na+].[Na+].[Na+] | % | 46
CC1(C)C(/C=C/C=C/C=C/C=C2\N(CCS(=O)(=O)[O-])c3ccc(S(=O)(=O)[O-])cc3C2(C)C)=[N+](CCS(=O)(=O)[O-])c2ccc(S(=O)(=O)[O-])cc21.[Na+].[Na+].[Na+] [Compound A, reference compound] | % | 27
CC1(C)C(/C=C/C=C(/C=C/C=C2\N(CCC(=O)[O-])c3ccc(P(=O)([O-])[O-])cc3C2(C)C)c2ccccc2)=[N+](CCC(=O)[O-])c2ccc(P(=O)([O-])[O-])cc21.[Na+].[Na+].[Na+].[Na+].[Na+] | % | 77

###

# System: plasma protein
# assay protocol: Plasma protein binding rate test by equilibrium dialysis method, dog plasma
# Assay type: in vitro ADME
# applied conditions: 5 μM, equilibrium dialysis 4 hours at 37° C.
# Description: Plasma protein binding rates of the compounds were determined by equilibrium dialysis method (W. Lindner et al, J. Chromatography, 1996, 677, 1-28). Each test compound was dissolved in distilled water at concentration of 200 μM. […] After 4 hours, samples of plasma and the buffer were collected, and the fluorescence intensity of each was measured by EnVision (GE Corporation). […]

compound | Plasma protein binding rate (%) dog
CC1(C)C(/C=C/C=C/C=C/C=C2/N(CCS(=O)(=O)[O-])c3ccc(P(=O)([O-])[O-])cc3C2(C)C)=[N+](CCS(=O)(=O)[O-])c2ccc(P(=O)([O-])[O-])cc21.[Na+].[Na+].[Na+].[Na+].[Na+] | 71
CC1(C)C(/C=C/C=C/C=C/C=C2\N(CCS(=O)(=O)[O-])c3ccc(S(=O)(=O)[O-])cc3C2(C)C)=[N+](CCS(=O)(=O)[O-])c2ccc(S(=O)(=O)[O-])cc21.[Na+].[Na+].[Na+] [Compound A, reference compound] | 29
CC1(C)C(/C=C/C=C/C=C/C=C2\N(CC(=O)O)c3ccc(S(=O)(=O)[O-])cc3C2(C)C)=[N+](CC(=O)O)c2ccc(S(=O)(=O)[O-])cc21.[Na+] | 50
CC1(C)C(/C=C/C=C(/C=C/C=C2\N(CCCP(=O)([O-])[O-])c3ccc(S(=O)(=O)[O-])cc3C2(C)C)c2ccccc2)=[N+](CCCP(=O)([O-])[O-])c2ccc(S(=O)(=O)[O-])cc21.[Na+].[Na+].[Na+].[Na+].[Na+] | 82
CC1(C)C(/C=C/C=C/C=C/C=C2/N(CCCP(=O)(O)O)c3ccc(S(=O)(=O)O)cc3C2(C)C)=[N+](CCCP(=O)(O)O)c2ccc(S(=O)(=O)O)cc21.[Na+].[Na+].[Na+].[Na+].[Na+].[Na+] | 52
CC1(C)C(/C=C/C=C(/C=C/C=C2\N(CCC(=O)[O-])c3ccc(P(=O)([O-])[O-])cc3C2(C)C)c2ccccc2)=[N+](CCC(=O)[O-])c2ccc(P(=O)([O-])[O-])cc21.[Na+].[Na+].[Na+].[Na+].[Na+] | 77
